- Species: Rattus norvegicus
- assay remarks: DrugMatrix - Regimen: Daily Repeat
- Format: toxicity, organism-based, Sprague-Dawley
- Design: regimen Daily Repeat, gender Male, age 6-8 weeks
- condition parameters: in vivo, iv, 0 mg/kg, 120 h, tissue Plasma, dose level Control, time 5 day, vehicle 100 % SALINE
Starred links: 1 amine or outer side, 2 acyl side, 3 side chain; linkers in the order of their positions; H or OH if unused. Positions of bridges follow the written chain, without caps; N, C: chain ends. Non-standard residues stand in square brackets, D forms with d. Residues, ends and D or L forms follow the SMILES beside them. Chains are numbered I, II in the order given. Actinocin(9to1) = Cc1c2oc3c(C)ccc(C(=O)[*:1])c3nc-2c(C(=O)[*:2])c(N)c1=O; NMeV = CN[C@H](C(=O)O)C(C)C; Sar = CNCC(=O)O
What CREATINE PHOSPHOKINASE was measured for each of the following?
The answer is to be given in u/L; state only the numeric part.

Enquiry: Return CREATINE PHOSPHOKINASE (reported value) for this molecule: Cc1ccc(N(CC2=NCCN2)c2cccc(O)c2)cc1 [PHENTOLAMINE]
Return: 585.33

Enquiry: Return CREATINE PHOSPHOKINASE (reported value) for this molecule: Cc1c2oc3c(C)ccc(C(=O)N[C@@H]4C(=O)N[C@H](C(C)C)C(=O)N5CCC[C@H]5C(=O)N(C)CC(=O)N(C)[C@@H](C(C)C)C(=O)O[C@@H]4C)c3nc-2c(C(=O)N[C@@H]2C(=O)N[C@H](C(C)C)C(=O)N3CCC[C@H]3C(=O)N(C)CC(=O)N(C)[C@@H](C(C)C)C(=O)O[C@@H]2C)c(N)c1=O [DACTINOMYCIN] (I: T[dV]P[Sar][NMeV] / II: T[dV]P[Sar][NMeV]; ester I:1-I:C, II:1-II:C; linker I:N-II:N via Actinocin(9to1))
Return: 488.67

Enquiry: Return CREATINE PHOSPHOKINASE (reported value) for this molecule: CC[C@]1(O)C[C@H]2CN(CCc3c([nH]c4ccccc34)[C@@](C(=O)OC)(c3cc4c(cc3OC)N(C=O)[C@H]3[C@@](O)(C(=O)OC)[C@H](OC(C)=O)[C@]5(CC)C=CCN6CC[C@]43[C@@H]65)C2)C1 [VINCRISTINE]
Return: 419

Enquiry: Return CREATINE PHOSPHOKINASE (reported value) for this molecule: COc1cc2c3cc1Oc1cc(ccc1O)C[C@@H]1c4c(cc(OC)c(O)c4Oc4ccc(cc4)C[C@@H]3N(C)CC2)CC[N+]1(C)C.[Cl-]
Return: 480.67

###

- Species: Rattus norvegicus
- assay remarks: DrugMatrix - Regimen: Daily Repeat
- Assay type: toxicity, organism-based, Sprague-Dawley
- Design: regimen Daily Repeat, gender Male, age 6-8 weeks
- condition parameters: in vivo, ip, 0 mg/kg, 120 h, tissue Blood, route intraperitoneal, dose level Control, time 5 day, vehicle 100 % SALINE
observable: ABSOLUTE SEGMENTED NEUTROPHIL (cells/µL)
The answer is to be given in cells/µL; state only the numeric part.

Enquiry: Return ABSOLUTE SEGMENTED NEUTROPHIL (reported value) for this substance: LEAD (II) ACETATE
Return: 1170
